# Test system: Human betaherpesvirus 5
# testMethodNotes: Antiviral activity against Human CMV T2293 in HFF cells by PRA
# Type: functional, organism-based
# particulars: Human betaherpesvirus 5, T2293, HFF
For each entry below, report its IC50 value.
Answer format: numeric, µM implied, no suffix.

// IC50 lookup, key: Nc1ccn(C[C@@H](CO)OCP(=O)(O)O)c(=O)n1
4.9

// IC50 lookup, key: Nc1nc2c(ncn2COC(CO)CO)c(=O)[nH]1
10

// IC50 lookup, key: O=C(O)P(=O)(O)O
122

###

# Test system: Human betaherpesvirus 5
# testMethodNotes: Antiviral activity against Human CMV T2211 in HFF cells by SEAP assay
# Type: functional, organism-based
# particulars: Human betaherpesvirus 5, T2211, HFF
propertyLabel: IC50 (µM)
Answer format: numeric, µM implied, no suffix.

// IC50 lookup, key: O=C(O)P(=O)(O)O [FOSCARNET]
41

// IC50 lookup, key: Nc1ccn(C[C@@H](CO)OCP(=O)(O)O)c(=O)n1 [CIDOFOVIR]
0.2
